target: human CB1 receptor (Homo sapiens, UniProt P21554); construct: expressed in transfected cells; host or cells: SK-N-MC cells, stably transfected with pcDNA3 CB-1 (human); semi-purified membrane pellet; experiment: biochemical; format: binding
Sequence (P21554 whole entry): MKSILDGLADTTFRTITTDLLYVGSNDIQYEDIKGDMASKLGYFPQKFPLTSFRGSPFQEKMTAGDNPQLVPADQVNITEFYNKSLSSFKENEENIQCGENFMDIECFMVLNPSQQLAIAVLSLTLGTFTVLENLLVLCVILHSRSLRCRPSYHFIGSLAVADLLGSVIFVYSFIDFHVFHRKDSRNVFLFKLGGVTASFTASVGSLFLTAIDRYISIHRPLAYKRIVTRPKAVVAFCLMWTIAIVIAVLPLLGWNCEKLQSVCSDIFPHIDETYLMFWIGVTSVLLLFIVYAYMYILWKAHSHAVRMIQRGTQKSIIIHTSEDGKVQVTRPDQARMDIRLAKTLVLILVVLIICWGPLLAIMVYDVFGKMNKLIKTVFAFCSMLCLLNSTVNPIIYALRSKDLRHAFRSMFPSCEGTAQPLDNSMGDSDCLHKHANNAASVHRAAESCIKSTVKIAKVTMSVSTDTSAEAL
So basically: is IC50 under 500 nM? Then rule met. Not under? Then rule not met.

Solved entries (count: 3):
# molecule, discrete-label
data = [
    ("O=C(NCC12CC3CC(CC(C3)C1)C2)c1nn(C2CCCCC2)c2c1CCCC2", "rule met"),
    ("CC1CCCC(C)N1NC(=O)c1nn(-c2ccc(Cl)cc2Cl)c2c1CCCC2=Cc1cccs1 (centres unmarked)", "rule met"),
    ("CCOC(=O)C1CCc2c(C(=O)NC3C4CC5CC(C4)CC3C5)nn(C3CCCCC3)c2C1 (centres unmarked)", "rule met"),
]

query: Would you kindly verify if IC50 of COc1ccc(C(O)CNC(=O)c2nn(C3CCCCC3)c3c2CCCC3)cc1 (centres unmarked) is strictly less than 500 nM?
result: rule not met

query: Would you kindly verify if IC50 of CC12CCC(C1)C(C)(C)C2NC(=O)c1nn(-c2cccc(F)c2)c2c1CCCC2 (centres unmarked) is strictly less than 500 nM?
result: rule met

###

Molecular target: human CB1 receptor (Homo sapiens, UniProt P21554)
Construct: expressed in transfected cells; host or cells: SK-N-MC cells, stably transfected with pcDNA3 CB-1 (human); semi-purified membrane pellet
Test: Functional cell-based assay, CB1 receptor mediated change in CRE β-gal expression (agonist / inverse agonist)
Settings: SK-N-MC cells, CRE β-gal, human CB1 receptor, forskolin; inverse agonist; read-out: CB1 Receptor Functional Inverse Agonist EC50
Excerpt: Functional Cell-Based Assay for CB1 or CB2 Agonist and Inverse Agonist Effects on Intra-Cellular Adenylate Cyclase Activity The CB1 and CB2 receptors are G-protein coupled receptors (GPCR) which influence cell function via the Gi-protein. […] By monitoring intracellular adenylate cyclase activity, the ability of compounds to act as agonists or inverse agonists can be determined. […]
observable: pEC50
Reminder that pEC50 means the negative base-10 logarithm of the concentration expressed in mol/L.

# molecule, experimental-system, reading
rows = [
    ("CC(NS(=O)(=O)C=Cc1nn(-c2ccc(F)cc2)c2c1CCCC2CCc1ccccc1)C1CCCCC1 (centres unmarked)", "human CB1 receptor (Homo sapiens, UniProt P21554)", 6.21),
]

query: Query: pEC50; subject: COc1ccc(-n2nc(C(=O)NCCc3ccc(N)cc3)c3c2CCCC3)cc1
result: 5.41

###

target: human CB1 receptor (Homo sapiens, UniProt P21554); construct: expressed in transfected cells; host or cells: SK-N-MC cells, stably transfected with pcDNA3 CB-1 (human); semi-purified membrane pellet; experiment: biochemical; assay type: binding
Measured IC50, listed per entry.
Could you give me the number in µM? Just the number is fine.

# molecule, observable, unit-abbreviation, reading
data = [
    ("C[C@H](NC(=O)c1nn(Cc2ccccc2)c2c1CCCC2)c1ccccc1 [compound 200]", "IC50", "µM", 0.008),
    ("CC(C)(C)C1CCc2c(c(C(=O)NCC34CC5CC(CC(C5)C3)C4)nn2C2CCCCC2)C1 (stereo not shown) [compound 102]", "IC50", "µM", 30.9),
    ("CC(c1ccccc1)n1nc(C(=O)NC23CC4CC(CC(C4)C2)C3)c2c1CCCC2 (stereo not shown) [compound 244]", "IC50", "µM", 0.3),
]

Switching to the query record.
query: Query: IC50; subject: CC(NC(=O)c1nn(C2CCCCC2)c2c1CC(=O)CC2)C12CC3CC(CC(C3)C1)C2 (stereo not shown) [compound 97]
result: 9.7
